Each recorded value in this set is attributed to ChEMBL document CHEMBL2218924.

# target-under-test: MAP kinase-interacting serine/threonine-protein kinase 2 (Homo sapiens) (UniProt Q9HBH9)
# Sequence (Q9HBH9 whole entry, looked up): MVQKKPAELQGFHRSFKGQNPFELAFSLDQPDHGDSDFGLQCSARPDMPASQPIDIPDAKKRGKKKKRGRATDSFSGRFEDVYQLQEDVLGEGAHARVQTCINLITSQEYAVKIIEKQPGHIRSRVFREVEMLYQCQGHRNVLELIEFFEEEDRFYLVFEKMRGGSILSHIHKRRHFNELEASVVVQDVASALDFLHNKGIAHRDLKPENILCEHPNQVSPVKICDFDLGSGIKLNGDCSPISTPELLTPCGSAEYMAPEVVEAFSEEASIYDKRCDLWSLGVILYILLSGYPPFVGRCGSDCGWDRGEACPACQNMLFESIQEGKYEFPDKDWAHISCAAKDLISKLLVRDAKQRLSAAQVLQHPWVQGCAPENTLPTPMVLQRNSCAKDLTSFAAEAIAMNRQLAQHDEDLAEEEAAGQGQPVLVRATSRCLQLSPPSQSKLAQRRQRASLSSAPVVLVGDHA
# measurement-context: at 1 µM
Hi! Just check whether residual activity is below 80%. Below gives Y, equal or above gives N.

1. CC(C)[C@H](CO)Nc1nc(Nc2cc(N)cc(Cl)c2)c2ncn(C(C)C)c2n1	N
2. Nc1ncnc2c1cnn2-c1ccccc1	Y
3. O=C(O)/C=C/c1cc(Br)c(Br)c(Br)c1Br	Y
4. N#C/C(=C1/Nc2ccccc2S1)c1ccnc(NCCc2cccnc2)n1	Y
5. O=C1NC(=O)C(c2cn(CCCO)c3ncccc23)=C1c1cnccn1	Y
6. c1ccc(-c2cnc(Nc3ccc(OCCN4CCCC4)cc3)s2)cc1	Y

---

Each entry below lists one item and its recorded residual activity value.
# target-under-test: Ephrin type-A receptor 4 (Homo sapiens)
# measurement-context: at 10 µM
measured-property: residual activity (%)

1) CCCC(=O)Oc1ccc2[nH]c(C(=O)c3cc4ccccc4[nH]3)cc2c1	91
2) O=C1NC(=O)c2c1c1c3ccccc3[nH]c1n1cncc21	94
3) O=c1cc(N2CCOCC2)oc2c1ccc1ccccc12	103
4) Nc1nc(Nc2ccc(S(N)(=O)=O)cc2)nn1C(=O)c1c(F)cccc1F	95
5) Nc1ncnc2c1cnn2-c1ccccc1	97
6) Nc1ncnc2[nH]nc(Nc3ccc(F)cc3)c12	77
7) CC(C)[C@H](CO)Nc1nc(Nc2cc(N)cc(Cl)c2)c2ncn(C(C)C)c2n1	63
8) CCCCc1c(-c2ccc(OC)cc2)[nH]c2nccnc12	105
9) O=C(CCCc1ccc(-c2ccccc2F)cc1)Nc1ccc(O)cc1	96
10) O=C1Cc2c([nH]c3ccc([N+](=O)[O-])cc23)-c2ccccc2N1	105
11) CN(C)S(=O)(=O)c1ccc2c(c1)/C(=C/c1cc3c([nH]1)CCCC3)C(=O)N2	92

---

Each entry below lists one item and its recorded residual activity value.
# target-under-test: Tyrosine-protein kinase Mer (Homo sapiens) (UniProt Q12866)
# Sequence (Q12866 whole entry): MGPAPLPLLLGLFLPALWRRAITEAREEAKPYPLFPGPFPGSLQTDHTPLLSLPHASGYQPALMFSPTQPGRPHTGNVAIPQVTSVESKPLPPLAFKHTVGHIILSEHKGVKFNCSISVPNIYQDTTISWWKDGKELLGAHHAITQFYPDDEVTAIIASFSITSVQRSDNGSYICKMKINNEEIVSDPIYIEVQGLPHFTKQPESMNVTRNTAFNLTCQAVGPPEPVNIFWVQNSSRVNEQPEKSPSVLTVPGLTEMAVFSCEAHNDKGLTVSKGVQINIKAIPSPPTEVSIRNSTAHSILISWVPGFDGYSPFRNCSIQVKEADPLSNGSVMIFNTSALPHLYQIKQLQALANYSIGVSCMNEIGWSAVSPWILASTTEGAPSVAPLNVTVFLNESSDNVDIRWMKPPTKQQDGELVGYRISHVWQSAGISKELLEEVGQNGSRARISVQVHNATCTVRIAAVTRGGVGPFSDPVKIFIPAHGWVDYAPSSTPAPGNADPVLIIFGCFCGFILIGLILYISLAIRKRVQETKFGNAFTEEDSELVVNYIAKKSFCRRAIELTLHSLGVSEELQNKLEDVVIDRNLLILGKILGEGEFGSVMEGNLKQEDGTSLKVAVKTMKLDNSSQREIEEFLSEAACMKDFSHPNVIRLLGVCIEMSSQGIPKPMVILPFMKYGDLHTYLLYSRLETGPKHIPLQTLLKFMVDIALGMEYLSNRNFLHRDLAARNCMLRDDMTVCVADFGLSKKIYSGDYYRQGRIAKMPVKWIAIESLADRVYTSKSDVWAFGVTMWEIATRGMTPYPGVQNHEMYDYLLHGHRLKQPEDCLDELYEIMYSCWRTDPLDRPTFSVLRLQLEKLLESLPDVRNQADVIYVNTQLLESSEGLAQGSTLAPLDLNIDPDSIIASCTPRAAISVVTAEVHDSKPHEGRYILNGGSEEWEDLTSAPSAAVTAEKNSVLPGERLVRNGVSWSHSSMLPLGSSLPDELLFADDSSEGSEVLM
# measurement-context: at 10 µM
measured-property: residual activity (%)

1. O=C1NC(=O)C(c2c[nH]c3ccccc23)=C1c1c[nH]c2ccccc12	33
2. O=S(=O)(NCCNC/C=C/c1ccc(Br)cc1)c1cccc2cnccc12	25
3. Nc1nccc(-c2c(-c3ccc(F)cc3)ncn2C2CCNCC2)n1	24
4. COc1ccc2c(c1)c(C1=C(c3c[nH]c4ccccc34)C(=O)NC1=O)cn2CCCN(C)C	10
5. O=C(O)/C=C/c1cc(Br)c(Br)c(Br)c1Br	94
6. O=C(CCCc1ccc(-c2ccccc2F)cc1)Nc1ccc(O)cc1	83
7. O=C(Nc1ccc(Cl)cc1)c1ccccc1NCc1ccncc1	99
8. O=c1cc(N2CCNCC2)oc2c(-c3ccccc3)cccc12	87
9. NC(=O)Nc1sc(-c2ccc(F)cc2)cc1C(N)=O	9
10. O=c1cc(N2CCOCC2)oc2c1ccc1ccccc12	83
11. Oc1cccc(-c2nc(N3CCOCC3)c3oc4ncccc4c3n2)c1	93
12. COc1cc2nccc(Oc3ccc(NC(=O)Nc4cc(C)on4)c(Cl)c3)c2cc1OC	4
13. CN(C)S(=O)(=O)c1ccc2c(c1)/C(=C/c1cc3c([nH]1)CCCC3)C(=O)N2	13
14. Nc1nc(Nc2ccc(S(N)(=O)=O)cc2)nn1C(=O)c1c(F)cccc1F	1
15. O=C1C(Cl)=C(N2C(=O)CCC2=O)C(=O)c2ccccc21	92
16. CCN(CC)CCNC(=O)c1c(C)[nH]c(/C=C2\C(=O)Nc3ccc(Cl)cc32)c1C	0
17. O=C(Nc1nc2ccccc2n1CCN1CCOCC1)c1cccc([N+](=O)[O-])c1	65
18. c1ccc(-c2cnc(Nc3ccc(OCCN4CCCC4)cc3)s2)cc1	17
19. O=C1Nc2ccccc2/C1=C\c1c(Cl)[nH]c2ccccc12	21

---

# target-under-test: Serine/threonine-protein kinase 17A (Homo sapiens) (UniProt Q9UEE5)
# Sequence (whole entry): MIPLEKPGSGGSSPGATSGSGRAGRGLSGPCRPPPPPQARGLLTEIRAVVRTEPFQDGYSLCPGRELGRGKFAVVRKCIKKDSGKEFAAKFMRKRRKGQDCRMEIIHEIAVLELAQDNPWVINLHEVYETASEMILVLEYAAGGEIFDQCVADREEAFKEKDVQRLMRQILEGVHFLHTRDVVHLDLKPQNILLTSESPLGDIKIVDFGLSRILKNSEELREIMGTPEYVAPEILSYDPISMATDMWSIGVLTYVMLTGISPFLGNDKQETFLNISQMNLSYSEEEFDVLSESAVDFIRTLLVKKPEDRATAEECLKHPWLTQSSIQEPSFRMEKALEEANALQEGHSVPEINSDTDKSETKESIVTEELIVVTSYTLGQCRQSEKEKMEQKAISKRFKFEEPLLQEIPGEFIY
# measurement-context: at 10 µM
measured-property: residual activity (%)

1) O=C1Cc2c([nH]c3ccc([N+](=O)[O-])cc23)-c2ccccc2N1	7
2) Nc1ncnc2[nH]nc(Nc3ccc(F)cc3)c12	16
3) COc1ccc(Cl)cc1NC(=O)Nc1cc(C)nc2ccccc12	58
4) NCCNc1ncc(C(N)=O)c(Nc2cccc(C(F)(F)F)c2)n1	60
5) Oc1cccc(-c2nc(N3CCOCC3)c3oc4ncccc4c3n2)c1	86
6) COc1ccc(COc2ccc(Cc3cnc(N)nc3N)cc2OC)cc1	112

---

# target-under-test: Tyrosine-protein kinase Lck (Homo sapiens)
# measurement-context: at 10 µM
measured-property: residual activity

1. O=C1Nc2ccccc2/C1=C\c1c(Cl)[nH]c2ccccc12	48%
2. COc1ccc2c(c1)c(C1=C(c3c[nH]c4ccccc34)C(=O)NC1=O)cn2CCCN(C)C	25%
3. COc1cc2nccc(Oc3ccc(NC(=O)Nc4cc(C)on4)c(Cl)c3)c2cc1OC	1%
4. O=C1C(Cl)=C(N2C(=O)CCC2=O)C(=O)c2ccccc21	99%
5. Nc1nc(Nc2ccc(S(N)(=O)=O)cc2)nn1C(=O)c1c(F)cccc1F	29%
6. Nc1ncnc2[nH]nc(Nc3ccc(F)cc3)c12	14%
7. COc1ccc(-c2cnc3c(-c4ccsc4)cnn3c2)cc1	123%
8. O=C(NC(NC(=S)Nc1ccc(F)c([N+](=O)[O-])c1)C(Cl)(Cl)Cl)C(c1ccccc1)c1ccccc1 (stereo unspecified)	55%
9. O=C(CCCc1ccc(-c2ccccc2F)cc1)Nc1ccc(O)cc1	58%
10. c1ccc(-c2cnc(Nc3ccc(OCCN4CCCC4)cc3)s2)cc1	19%
11. CCCCc1c(-c2ccc(O)cc2)[nH]c2nccnc12	50%
12. COc1cc2nccc(Oc3ccc(NC(=S)NC(=O)c4ccccc4C)cc3)c2cc1OC	-1%
13. O=C(O)/C=C/c1cc(Br)c(Br)c(Br)c1Br	95%
14. O=C1NC(=O)C(c2cn(CCCn3ccnc3)c3ccccc23)=C1Nc1ccccc1	65%
15. CCCCc1c(-c2ccc(OC)cc2)[nH]c2nccnc12	63%
16. O=C(c1cc2cc(O)ccc2[nH]1)c1cc2cc(O)ccc2[nH]1	2%
17. O=C1NC(=O)c2c1c1c3ccccc3[nH]c1n1cncc21	49%
18. COc1ccc(CNC(=O)Nc2ncc([N+](=O)[O-])s2)cc1	37%
19. COc1ccc(COc2ccc(Cc3cnc(N)nc3N)cc2OC)cc1	77%
20. O=c1cc(N2CCOCC2)oc2c1ccc1ccccc12	101%
21. CC(C)N(CCC(=O)c1ccc2ccccc2c1)Cc1ccccc1	77%

---

# target-under-test: Serine/threonine-protein kinase Chk2 (Homo sapiens) (UniProt O96017)
# Sequence (O96017 whole entry): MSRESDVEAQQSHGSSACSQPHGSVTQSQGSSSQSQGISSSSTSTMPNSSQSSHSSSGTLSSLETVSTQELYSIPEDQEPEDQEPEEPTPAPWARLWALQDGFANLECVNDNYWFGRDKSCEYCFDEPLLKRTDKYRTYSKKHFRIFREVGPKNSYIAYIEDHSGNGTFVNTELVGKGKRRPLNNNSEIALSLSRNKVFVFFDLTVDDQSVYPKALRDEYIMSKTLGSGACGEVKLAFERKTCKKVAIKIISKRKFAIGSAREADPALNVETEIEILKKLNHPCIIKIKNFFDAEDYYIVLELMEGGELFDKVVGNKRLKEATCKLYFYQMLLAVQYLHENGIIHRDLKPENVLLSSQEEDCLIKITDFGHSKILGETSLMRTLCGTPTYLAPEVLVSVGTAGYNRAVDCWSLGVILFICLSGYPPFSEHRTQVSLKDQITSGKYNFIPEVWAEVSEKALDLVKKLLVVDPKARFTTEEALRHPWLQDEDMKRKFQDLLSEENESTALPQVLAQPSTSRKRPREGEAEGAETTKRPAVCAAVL
# measurement-context: at 10 µM
# binning rule on residual activity: range 1 = under 3%, range 2 = from 3% up to 60%, range 3 = 60% and over

1. O=C1Cc2c([nH]c3ccc([N+](=O)[O-])cc23)-c2ccccc2N1	range 1
2. N#Cc1c(NC(=O)c2cccc3ccccc23)sc2c1CCCC2	range 3
3. O=c1cc(N2CCOCC2)oc2c1ccc1ccccc12	range 3
4. NCCNc1ncc(C(N)=O)c(Nc2cccc(C(F)(F)F)c2)n1	range 1
5. O=C1NC(=O)C(c2c[nH]c3ccccc23)=C1c1c[nH]c2ccccc12	range 2
6. COc1cc2ncnc(Nc3cccc(Cl)c3)c2cc1OC	range 2
7. NC(=O)c1cccc(-c2cc(Nc3ccc(OC(F)(F)F)cc3)ncn2)c1	range 3
8. CCN(CC)CCNC(=O)c1c(C)[nH]c(/C=C2\C(=O)Nc3ccc(Cl)cc32)c1C	range 1
9. CCCCc1c(-c2ccc(OC)cc2)[nH]c2nccnc12	range 2

---

# target-under-test: Protein kinase C gamma type (Homo sapiens)
# measurement-context: at 10 µM
measured-property: residual activity (%)

1. CC(C)[C@H](CO)Nc1nc(Nc2cc(N)cc(Cl)c2)c2ncn(C(C)C)c2n1	80
2. O=C(CCCc1ccc(-c2ccccc2F)cc1)Nc1ccc(O)cc1	110
3. CC(C)(C)n1nc(Cc2cccc3ccccc23)c2c(N)ncnc21	94
4. COc1cc2c(cc1OC)-c1n[nH]c(Nc3cccc(F)c3)c1C2	105
5. O=C1NC(=O)C(c2cn(CCCn3ccnc3)c3ccccc23)=C1Nc1ccccc1	2
6. CC(C)(C)c1nc2c3ccc(F)cc3c3c(=O)[nH]ccc3c2[nH]1	46
